- ASSAY_NAME: Positive inotropic activity in cat heart papillary muscle assessed as increase in contractile force at 10 ug/mL measured for 5 to 30 mins
- Format: functional, Felis catus, Muscle tissue
MEASURED_METRIC: Activity

{"COMPOUND": "N=C(NCCO)C(Cl)(Cl)Cl", "RESULT": ">600 mg"}

Check the records and state Activity for C=CCN(C)C(=N)C(Cl)(Cl)Cl.O=C(O)/C=C\C(=O)O
>600 mg

Note Activity for the compound shown: N=C(NCc1ccccc1)C(Cl)(Cl)Cl
<200 mg

Specify reported Activity for the compound shown: N=C(NCc1c[nH]c2ccccc12)C(Cl)(Cl)Cl
>600 mg

Input C=CCN/C(=N\C)C(Cl)(Cl)Cl.Cl , output reported Activity.
>600 mg
